inhibition at 1 µM reference
- test_target: PDE3B (Homo sapiens, UniProt Q13370)
- Sequence (Q13370 whole entry, species assumed): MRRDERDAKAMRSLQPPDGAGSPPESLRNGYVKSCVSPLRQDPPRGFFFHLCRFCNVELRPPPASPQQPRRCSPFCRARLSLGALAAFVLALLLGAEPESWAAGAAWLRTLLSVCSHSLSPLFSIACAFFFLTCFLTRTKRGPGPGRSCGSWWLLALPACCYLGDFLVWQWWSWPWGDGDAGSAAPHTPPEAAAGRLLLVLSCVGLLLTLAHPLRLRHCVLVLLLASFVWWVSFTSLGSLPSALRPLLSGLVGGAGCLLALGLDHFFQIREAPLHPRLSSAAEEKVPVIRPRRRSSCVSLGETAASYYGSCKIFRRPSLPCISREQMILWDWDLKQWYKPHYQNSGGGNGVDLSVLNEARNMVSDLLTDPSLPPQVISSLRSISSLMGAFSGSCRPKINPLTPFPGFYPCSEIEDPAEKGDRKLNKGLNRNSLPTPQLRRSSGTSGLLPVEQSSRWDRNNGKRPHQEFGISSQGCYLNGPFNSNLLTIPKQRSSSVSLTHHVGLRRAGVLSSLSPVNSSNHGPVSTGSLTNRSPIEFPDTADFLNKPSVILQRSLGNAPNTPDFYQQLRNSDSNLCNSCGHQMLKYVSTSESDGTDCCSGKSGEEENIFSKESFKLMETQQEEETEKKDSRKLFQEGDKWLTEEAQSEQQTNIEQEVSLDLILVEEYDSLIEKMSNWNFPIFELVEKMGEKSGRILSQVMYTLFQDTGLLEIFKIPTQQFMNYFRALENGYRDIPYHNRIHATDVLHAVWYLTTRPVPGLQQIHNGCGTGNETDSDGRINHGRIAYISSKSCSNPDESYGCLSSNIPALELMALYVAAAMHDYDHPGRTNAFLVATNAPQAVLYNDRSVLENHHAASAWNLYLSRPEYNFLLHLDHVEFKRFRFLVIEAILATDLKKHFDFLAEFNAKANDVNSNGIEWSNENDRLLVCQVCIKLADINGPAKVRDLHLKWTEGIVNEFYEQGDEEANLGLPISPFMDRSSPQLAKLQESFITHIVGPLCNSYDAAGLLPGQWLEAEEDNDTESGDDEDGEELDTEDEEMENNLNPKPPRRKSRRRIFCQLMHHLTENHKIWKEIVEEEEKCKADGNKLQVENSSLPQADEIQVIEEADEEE
- measurement_protocol: Selective inhibitory activity assay, PDE3B
- Format: biochemical
- condition_label: 1 μM; read-out: Inhibition rate (%) of PDE3B
property_label: inhibition at 1 µM (%)

>>> numeric_value("CCCCc1ccc(NC(=O)CCCCl)c2c1C(=O)N([C@H](CS(C)(=O)=O)c1ccc(OC)c(OCC)c1)C2=O")
0
>>> numeric_value("CCCCCc1ccc(NC(=O)CCCl)c2c1C(=O)N([C@H](CS(C)(=O)=O)c1ccc(OC)c(OCC)c1)C2=O")
0
>>> numeric_value("CCCCCc1ccc(NC(=O)CCl)c2c1C(=O)N([C@H](CS(C)(=O)=O)c1ccc(OC)c(OCC)c1)C2=O")
0
>>> numeric_value("CCCCCc1ccc(NC(=O)CC)c2c1C(=O)N([C@H](CS(C)(=O)=O)c1ccc(OC)c(OCC)c1)C2=O")
3.31
>>> numeric_value("CCCCCc1ccc(NC(=O)CCCCl)c2c1C(=O)N([C@H](CS(C)(=O)=O)c1ccc(OC)c(OCC)c1)C2=O")
0.06
>>> numeric_value("CCCCCc1ccc(NC(C)=O)c2c1C(=O)N([C@H](CS(C)(=O)=O)c1ccc(OC)c(OCC)c1)C2=O")
5.44

----------
- test_target: PDE7A (Homo sapiens, UniProt Q13946)
- Sequence (Q13946 whole entry, species assumed): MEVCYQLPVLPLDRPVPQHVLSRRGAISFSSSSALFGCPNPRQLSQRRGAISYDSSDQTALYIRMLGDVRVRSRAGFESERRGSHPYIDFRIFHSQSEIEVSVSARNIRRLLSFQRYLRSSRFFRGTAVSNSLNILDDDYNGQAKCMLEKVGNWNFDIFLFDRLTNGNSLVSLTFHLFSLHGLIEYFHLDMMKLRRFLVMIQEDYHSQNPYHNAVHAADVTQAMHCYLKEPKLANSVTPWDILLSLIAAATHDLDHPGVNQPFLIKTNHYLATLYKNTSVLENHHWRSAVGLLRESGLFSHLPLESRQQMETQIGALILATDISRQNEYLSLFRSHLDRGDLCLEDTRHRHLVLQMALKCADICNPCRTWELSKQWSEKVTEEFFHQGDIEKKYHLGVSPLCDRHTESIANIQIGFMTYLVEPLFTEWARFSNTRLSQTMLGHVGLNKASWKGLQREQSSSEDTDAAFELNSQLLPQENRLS
- measurement_protocol: Selective inhibitory activity assay, PDE7A
- Assay type: biochemical
- condition_label: 1 μM; read-out: Inhibition rate (%) of PDE7A
property_label: inhibition at 1 µM (%)

>>> numeric_value("C=CC(=O)Nc1ccc(CCCCC)c2c1C(=O)N([C@H](CS(C)(=O)=O)c1ccc(OC)c(OCC)c1)C2=O [Example 29]")
17.4
>>> numeric_value("CCCCCc1ccc(NC(=O)CF)c2c1C(=O)N([C@H](CS(C)(=O)=O)c1ccc(OC)c(OCC)c1)C2=O [Example 28]")
0.55
>>> numeric_value("CCCCCc1ccc(NC(C)=O)c2c1C(=O)N([C@H](CS(C)(=O)=O)c1ccc(OC)c(OCC)c1)C2=O [Example 9]")
20.8

----------
Entries and their inhibition at 10 µM
- test_target: PDE3B (Homo sapiens, UniProt Q13370)
- measurement_protocol: Selective inhibitory activity assay, PDE3B
- Format: biochemical
- condition_label: 10 μM; read-out: Inhibition rate (%) of PDE3B
property_label: inhibition at 10 µM (%)

>>> numeric_value("CCCCCc1ccc(NC(=O)CCCl)c2c1C(=O)N([C@H](CS(C)(=O)=O)c1ccc(OC)c(OCC)c1)C2=O")
-0.81
>>> numeric_value("CCCC#Cc1ccc(NC(C)=O)c2c1C(=O)N([C@H](CS(C)(=O)=O)c1ccc(OC)c(OCC)c1)C2=O")
0.06
>>> numeric_value("CCCCCc1ccc(NC(=O)CCCCl)c2c1C(=O)N([C@H](CS(C)(=O)=O)c1ccc(OC)c(OCC)c1)C2=O")
-0.69
>>> numeric_value("CCCCCc1ccc(NC(=O)CF)c2c1C(=O)N([C@H](CS(C)(=O)=O)c1ccc(OC)c(OCC)c1)C2=O")
6.44
>>> numeric_value("C=CC(=O)Nc1ccc(CCCCC)c2c1C(=O)N([C@H](CS(C)(=O)=O)c1ccc(OC)c(OCC)c1)C2=O")
-1.94
>>> numeric_value("CCCCCc1ccc(NC(=O)CCl)c2c1C(=O)N([C@H](CS(C)(=O)=O)c1ccc(OC)c(OCC)c1)C2=O")
0.19
>>> numeric_value("CCCCCc1ccc(NC(=O)CC)c2c1C(=O)N([C@H](CS(C)(=O)=O)c1ccc(OC)c(OCC)c1)C2=O")
0.94

----------
# PDE4A1 (Homo sapiens, UniProt P27815): IC50 values follow
# Sequence (P27815 1-647 isoform P27815-4): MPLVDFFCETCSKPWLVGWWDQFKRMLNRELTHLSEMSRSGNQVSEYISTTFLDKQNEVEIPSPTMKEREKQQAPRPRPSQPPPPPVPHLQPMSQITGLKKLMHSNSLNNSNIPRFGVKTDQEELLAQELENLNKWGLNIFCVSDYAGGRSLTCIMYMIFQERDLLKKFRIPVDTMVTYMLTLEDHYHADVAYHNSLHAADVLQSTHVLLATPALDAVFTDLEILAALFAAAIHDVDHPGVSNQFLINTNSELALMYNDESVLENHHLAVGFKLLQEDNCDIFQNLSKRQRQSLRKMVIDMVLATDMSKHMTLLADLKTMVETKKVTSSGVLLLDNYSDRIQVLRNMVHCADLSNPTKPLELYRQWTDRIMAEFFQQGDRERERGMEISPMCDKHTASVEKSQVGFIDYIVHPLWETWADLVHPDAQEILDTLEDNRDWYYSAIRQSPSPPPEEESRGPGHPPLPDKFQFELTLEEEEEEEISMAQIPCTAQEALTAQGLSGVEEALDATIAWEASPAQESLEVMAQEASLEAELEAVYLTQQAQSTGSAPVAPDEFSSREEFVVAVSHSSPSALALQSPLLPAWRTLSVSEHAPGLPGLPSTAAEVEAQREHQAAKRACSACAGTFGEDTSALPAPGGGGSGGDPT
property_label: IC50

>>> result("[2H]c1c([2H])c(NC(C)=O)c2c(c1CCCCC)C(=O)N([C@H](CS(C)(=O)=O)c1ccc(OC)c(OCC)c1)C2=O")
"< 0.1 µM"
>>> result("CCCCCc1ccc(NC(C)=O)c2c1C(=O)N([C@H](CS(C)(=O)=O)c1ccc(OC)c(OCC)c1)C2=O")
"< 0.1 µM"
>>> result("CCCCC(O)c1ccc(NC(C)=O)c2c1C(=O)N([C@H](CS(C)(=O)=O)c1ccc(OC)c(OCC)c1)C2=O (mixture of isomers)")
"< 0.1 µM"

----------
- test_target: PDE2A (Homo sapiens, UniProt O00408)
- Sequence (O00408 whole entry, species assumed): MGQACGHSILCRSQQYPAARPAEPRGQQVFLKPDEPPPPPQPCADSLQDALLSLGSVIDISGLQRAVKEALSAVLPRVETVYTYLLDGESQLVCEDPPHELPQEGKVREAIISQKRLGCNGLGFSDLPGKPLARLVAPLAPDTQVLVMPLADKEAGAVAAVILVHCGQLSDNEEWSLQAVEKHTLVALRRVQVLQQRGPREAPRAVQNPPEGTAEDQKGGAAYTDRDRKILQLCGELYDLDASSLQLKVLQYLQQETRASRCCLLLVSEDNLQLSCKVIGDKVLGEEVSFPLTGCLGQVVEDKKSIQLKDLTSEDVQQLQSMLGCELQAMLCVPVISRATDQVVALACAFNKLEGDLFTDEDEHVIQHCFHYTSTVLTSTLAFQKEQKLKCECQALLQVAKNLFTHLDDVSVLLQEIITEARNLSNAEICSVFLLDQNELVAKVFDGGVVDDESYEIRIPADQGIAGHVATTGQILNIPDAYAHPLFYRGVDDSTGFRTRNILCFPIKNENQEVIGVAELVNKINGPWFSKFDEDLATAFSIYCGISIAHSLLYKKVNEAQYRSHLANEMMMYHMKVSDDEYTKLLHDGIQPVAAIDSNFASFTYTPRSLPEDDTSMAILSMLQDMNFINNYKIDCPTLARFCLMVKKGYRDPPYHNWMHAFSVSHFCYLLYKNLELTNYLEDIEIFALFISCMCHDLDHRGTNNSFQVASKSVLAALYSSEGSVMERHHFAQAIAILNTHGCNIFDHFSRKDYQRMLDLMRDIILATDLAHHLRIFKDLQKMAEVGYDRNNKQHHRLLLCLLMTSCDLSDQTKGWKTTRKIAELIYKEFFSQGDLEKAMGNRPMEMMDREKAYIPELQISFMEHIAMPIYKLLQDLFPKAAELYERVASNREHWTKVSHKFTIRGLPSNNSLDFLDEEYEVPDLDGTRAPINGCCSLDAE
- measurement_protocol: Selective inhibitory activity assay, PDE2A
- Format: biochemical
- condition_label: 1 μM; read-out: Inhibition rate (%) of PDE2A
Recorded inhibition at 1 µM, one value per entry.
property_label: inhibition at 1 µM

>>> result("CCCCCc1ccc(NC(=O)CCCl)c2c1C(=O)N([C@H](CS(C)(=O)=O)c1ccc(OC)c(OCC)c1)C2=O")
"0%"
>>> result("CCCC#Cc1ccc(NC(C)=O)c2c1C(=O)N([C@H](CS(C)(=O)=O)c1ccc(OC)c(OCC)c1)C2=O")
"0.08%"
>>> result("CCCCCc1ccc(NC(C)=O)c2c1C(=O)N([C@H](CS(C)(=O)=O)c1ccc(OC)c(OCC)c1)C2=O")
"5.83%"
>>> result("CCCCCc1ccc(NC(=O)CCl)c2c1C(=O)N([C@H](CS(C)(=O)=O)c1ccc(OC)c(OCC)c1)C2=O")
"20.4%"
>>> result("CCCCc1ccc(NC(=O)CCCCl)c2c1C(=O)N([C@H](CS(C)(=O)=O)c1ccc(OC)c(OCC)c1)C2=O")
"0%"
>>> result("C=CC(=O)Nc1ccc(CCCCC)c2c1C(=O)N([C@H](CS(C)(=O)=O)c1ccc(OC)c(OCC)c1)C2=O")
"7.19%"
>>> result("CCOc1cc([C@@H](CS(C)(=O)=O)N2C(=O)c3cccc(NC(C)=O)c3C2=O)ccc1OC [Example 0, Apremilast, reference compound]")
"2.95%"

----------
- test_target: PDE7A (Homo sapiens, UniProt Q13946)
- measurement_protocol: Selective inhibitory activity assay, PDE7A
- Format: biochemical
- condition_label: 10 μM; read-out: Inhibition rate (%) of PDE7A
property_label: inhibition at 10 µM (%)

>>> numeric_value("CCCC#Cc1ccc(NC(C)=O)c2c1C(=O)N([C@H](CS(C)(=O)=O)c1ccc(OC)c(OCC)c1)C2=O")
15.5
>>> numeric_value("CCCCCc1ccc(NC(=O)CF)c2c1C(=O)N([C@H](CS(C)(=O)=O)c1ccc(OC)c(OCC)c1)C2=O")
10.5
>>> numeric_value("CCCCc1ccc(NC(=O)CCCCl)c2c1C(=O)N([C@H](CS(C)(=O)=O)c1ccc(OC)c(OCC)c1)C2=O")
14.7
>>> numeric_value("CCCCCc1ccc(NC(=O)CCCl)c2c1C(=O)N([C@H](CS(C)(=O)=O)c1ccc(OC)c(OCC)c1)C2=O")
4.15
>>> numeric_value("CCCCCc1ccc(NC(=O)CC)c2c1C(=O)N([C@H](CS(C)(=O)=O)c1ccc(OC)c(OCC)c1)C2=O")
9.96
>>> numeric_value("C=CC(=O)Nc1ccc(CCCCC)c2c1C(=O)N([C@H](CS(C)(=O)=O)c1ccc(OC)c(OCC)c1)C2=O")
19.9
>>> numeric_value("CCCCCc1ccc(NC(C)=O)c2c1C(=O)N([C@H](CS(C)(=O)=O)c1ccc(OC)c(OCC)c1)C2=O")
44.5
>>> numeric_value("CCCCCc1ccc(NC(=O)CCCCl)c2c1C(=O)N([C@H](CS(C)(=O)=O)c1ccc(OC)c(OCC)c1)C2=O")
1.94
>>> numeric_value("CCCCCc1ccc(NC(=O)CCl)c2c1C(=O)N([C@H](CS(C)(=O)=O)c1ccc(OC)c(OCC)c1)C2=O")
24.6
>>> numeric_value("CCOc1cc([C@@H](CS(C)(=O)=O)N2C(=O)c3cccc(NC(C)=O)c3C2=O)ccc1OC [Example 0, Apremilast, reference compound]")
11.1

----------
- test_target: PDE1C (Homo sapiens, UniProt Q14123)
- Sequence (Q14123 whole entry, species assumed): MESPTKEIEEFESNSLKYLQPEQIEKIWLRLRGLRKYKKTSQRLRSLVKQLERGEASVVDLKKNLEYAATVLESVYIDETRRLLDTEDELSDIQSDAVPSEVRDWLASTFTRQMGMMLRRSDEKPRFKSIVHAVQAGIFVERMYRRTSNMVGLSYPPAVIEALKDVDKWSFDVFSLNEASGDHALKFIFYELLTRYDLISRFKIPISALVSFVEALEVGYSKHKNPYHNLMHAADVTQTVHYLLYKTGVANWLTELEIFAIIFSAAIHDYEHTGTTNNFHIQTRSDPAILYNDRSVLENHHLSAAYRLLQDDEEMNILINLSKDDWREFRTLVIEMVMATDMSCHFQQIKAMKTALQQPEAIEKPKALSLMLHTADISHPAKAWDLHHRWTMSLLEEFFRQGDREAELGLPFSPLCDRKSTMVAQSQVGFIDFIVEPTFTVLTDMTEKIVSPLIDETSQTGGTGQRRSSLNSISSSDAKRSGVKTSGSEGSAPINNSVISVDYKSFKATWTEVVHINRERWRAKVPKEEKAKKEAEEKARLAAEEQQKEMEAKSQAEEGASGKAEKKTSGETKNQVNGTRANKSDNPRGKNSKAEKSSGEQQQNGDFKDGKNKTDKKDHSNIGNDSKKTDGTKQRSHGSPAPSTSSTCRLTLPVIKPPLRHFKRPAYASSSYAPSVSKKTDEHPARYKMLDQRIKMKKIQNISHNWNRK
- measurement_protocol: Selective inhibitory activity assay, PDE1C
- Format: biochemical
- condition_label: 10 μM; read-out: Inhibition rate (%) of PDE1C
# reported inhibition at 10 µM; entries follow
property_label: inhibition at 10 µM (%)

>>> numeric_value("CCCCCc1ccc(NC(=O)CF)c2c1C(=O)N([C@H](CS(C)(=O)=O)c1ccc(OC)c(OCC)c1)C2=O [Example 28]")
24.8
>>> numeric_value("C=CC(=O)Nc1ccc(CCCCC)c2c1C(=O)N([C@H](CS(C)(=O)=O)c1ccc(OC)c(OCC)c1)C2=O [Example 29]")
26
>>> numeric_value("CCCC#Cc1ccc(NC(C)=O)c2c1C(=O)N([C@H](CS(C)(=O)=O)c1ccc(OC)c(OCC)c1)C2=O [Example 7]")
26.5
>>> numeric_value("CCCCCc1ccc(NC(=O)CC)c2c1C(=O)N([C@H](CS(C)(=O)=O)c1ccc(OC)c(OCC)c1)C2=O [Example 13]")
51.7
>>> numeric_value("CCCCCc1ccc(NC(=O)CCCl)c2c1C(=O)N([C@H](CS(C)(=O)=O)c1ccc(OC)c(OCC)c1)C2=O [Example 24]")
34.5
>>> numeric_value("CCCCCc1ccc(NC(=O)CCCCl)c2c1C(=O)N([C@H](CS(C)(=O)=O)c1ccc(OC)c(OCC)c1)C2=O [Example 5]")
30.8
>>> numeric_value("CCOc1cc([C@@H](CS(C)(=O)=O)N2C(=O)c3cccc(NC(C)=O)c3C2=O)ccc1OC [Example 0, Apremilast, reference compound]")
37.1

Sourced from patent US20240254082A1
